Each recorded value in this set is attributed to the NIST ThermoML archive (doi:10.1016/j.jct.2013.10.038).

experiment: activity coefficient (dimensionless); of the first substance listed, at infinite dilution; xn = mol fraction of the nth substance listed; settings: 343.15 K; 101 kPa; Liquid; Chromatography; x1 = 0
Would you kindly list activity coefficient for each of these molecules?
Please give only the number in your answer, with no unit.

activity coefficient reported for this molecule Brc1ccccc1 [bromobenzene] + CCCCCCn1cc[n+](C)c1.O=C([O-])C(F)(F)F : 2.32

activity coefficient for CC#N [acetonitrile] + CCCCCCn1cc[n+](C)c1.O=C([O-])C(F)(F)F is 1.22

The molecule Clc1ccccc1 [chlorobenzene] + CCCCCCn1cc[n+](C)c1.O=C([O-])C(F)(F)F showed activity coefficient equal to 2.2

---

test: activity coefficient (dimensionless); of the first substance listed, at infinite dilution; xn = mol fraction of the nth substance listed; details: 303.15 K; 101 kPa; Liquid; Chromatography; x1 = 0
Measured metric: activity coefficient
The reply should be a number, written without any unit.

Please fill in: activity coefficient reported for Brc1ccccc1 [bromobenzene] + CCCCCCn1cc[n+](C)c1.O=C([O-])C(F)(F)F = 2.18

Lab book: activity coefficient of CCOC(C)=O [ethyl acetate] + CCCCCCn1cc[n+](C)c1.O=C([O-])C(F)(F)F noted as 2.64

The reported value for CCO [ethanol] + CCCCCCn1cc[n+](C)c1.O=C([O-])C(F)(F)F in terms of activity coefficient is 0.21

What the record says about Clc1ccccc1 [chlorobenzene] + CCCCCCn1cc[n+](C)c1.O=C([O-])C(F)(F)F : activity coefficient is 2.27

Sure, the documented activity coefficient for Cc1ccccc1 [toluene] + CCCCCCn1cc[n+](C)c1.O=C([O-])C(F)(F)F is 2.97

The reported value for ClC(Cl)(Cl)Cl [tetrachloromethane] + CCCCCCn1cc[n+](C)c1.O=C([O-])C(F)(F)F in terms of activity coefficient is 0.62

Recorded activity coefficient (compound C=Cc1ccccc1 [styrene] + CCCCCCn1cc[n+](C)c1.O=C([O-])C(F)(F)F ): 2.28

ClC(Cl)Cl [trichloromethane] + CCCCCCn1cc[n+](C)c1.O=C([O-])C(F)(F)F has a reported activity coefficient of 0.08

---

assay: activity coefficient (dimensionless); of the first substance listed, at infinite dilution; xn = mol fraction of the nth substance listed; conditions: 303.15 K; 101 kPa; Liquid; Chromatography; x1 = 0
Can you tell me activity coefficient for the items I'm about to list?

Kindly note the recorded activity coefficient for Cc1cccc(C)c1 [1,3-dimethylbenzene] + CCCCCCn1cc[n+](C)c1.O=C([O-])C(F)(F)F , which is 4.19

Lab book: activity coefficient of CO [methanol] + CCCCCCn1cc[n+](C)c1.O=C([O-])C(F)(F)F noted as 0.1

Just so you know, measured activity coefficient for ClCCl [dichloromethane] + CCCCCCn1cc[n+](C)c1.O=C([O-])C(F)(F)F came out at 0.64

# activity coefficient of CC(C)=O [acetone] + CCCCCCn1cc[n+](C)c1.O=C([O-])C(F)(F)F = 1.69

Reported activity coefficient ( ClCCCl [1,2-dichloroethane] + CCCCCCn1cc[n+](C)c1.O=C([O-])C(F)(F)F ) = 0.62

The recorded activity coefficient for entry Cc1ccccc1C [1,2-dimethylbenzene] + CCCCCCn1cc[n+](C)c1.O=C([O-])C(F)(F)F equals 3.54

What the record says about C1COCCO1 [1,4-dioxane] + CCCCCCn1cc[n+](C)c1.O=C([O-])C(F)(F)F : activity coefficient is 1.91

Quick note, activity coefficient for CC#N [acetonitrile] + CCCCCCn1cc[n+](C)c1.O=C([O-])C(F)(F)F landed at 1.01
